Test: physchem
Conditions: octan-1-ol/water, pH 7.4, LogD7.4

| compound | logD |
| --- | --- |
| COc1cc2c(Nc3c(Cl)ccc4c3OCO4)ncnc2cc1OCC1CCN(C)CC1 | 1.83 |
| CS(=O)(=O)c1ccc([C@@H](CC2CCCC2)C(=O)Nc2nccs2)cc1 | 3.86 |
| COc1cc(OC2CCN(C)CC2)c2c(Nc3c(Cl)ccc4c3OCO4)ncnc2c1 | 2.98 |
| O=C(NCc1ccco1)c1ccc2[nH]c(COc3ccc(C45CC6CC(CC(C6)C4)C5)cc3)nc2c1 | 4 |
| CC(Oc1c(Cl)cccc1Cl)C1=NCCN1 (stereo unspecified) | 0.48 |
| O=C(Nc1ccc(Cl)c(S(=O)(=O)N2CCNCC2)c1O)Nc1cccc(F)c1Cl | 2.6 |
| CO[C@H]1CN(CCn2c(=O)ccc3ccc(C#N)cc32)CC[C@@H]1NCc1cc2c(cn1)OCCO2 | 1.05 |
| COc1c(N2CCO[C@@H](CN(C)C)C2)c(F)cc2c(=O)c(C(=O)O)cn(C3CC3)c12 | -0.62 |
| Fc1ccc(-n2cc(C3CCNCC3)c3cc(Cl)ccc32)cc1 | 2.4 |
| CNc1c(Br)cnc2nc(-c3ccc(OCCN4CCN(C)CC4)cc3)[nH]c12 | 2.91 |
| COc1cc(OC)c2nc(C)c3c(c2c1)N(c1ccc(O)cc1)CC3 | 1.5 |
| O=C(Nc1ccc(Cl)nc1)c1ccc(F)c(Cl)c1 | 3.64 |
| CC(C(=O)O)c1cccc(Oc2ccccc2)c1 (stereo unspecified) | 0.71 |
| CN1CCOc2cc(COC3CCCCC3)cnc21 | 3.1 |
| CC(C)C[C@H](CO)Nc1nc(SCc2ccccc2)nc2nc(N)sc12 | 4.2 |
| O=C(NC1Cc2ccccc2N(CCO)C1=O)c1cc2cc(Cl)sc2[nH]1 (stereo unspecified) | 3.05 |
| CCNC(=O)c1ccc(C)c(-n2cnc3ccc(N4CCN(C)CC4)cc3c2=O)c1 | 1.47 |
| COCCC(=O)N(C)c1ccc(Nc2ncc3cc(-c4ccncc4)ccc3n2)cc1 | 3.23 |
| O=c1[nH]c2c(O)ccc([C@@H](O)CNCCc3ccc(CNCCc4ccccc4)cc3)c2s1 | 1.11 |
| Cc1cc(Nc2nc(N[C@@H](C)c3ncc(F)cn3)c(C#N)nc2C)n[nH]1 | 1.92 |
| COc1ccc(-c2nc3c(NCCCNC(=O)C4CC4)c(Br)cnc3[nH]2)cc1 | 1.71 |

###

Assay: physchem
Conditions: octan-1-ol/water, pH 7.4, LogD7.4
Please note: condition met applies when logD is 2 or greater, and condition not met applies otherwise.

| compound | category |
| --- | --- |
| Nc1nc(-c2ccccn2)nc(N)c1Cc1ccccc1F | condition met |
| CC[C@H](NC(=O)c1c(S(C)(=O)=O)c(-c2ccccc2)nc2ccccc12)c1ccccc1 | condition met |
| O=c1cc(-c2ccc(O)cc2)oc2cc(O)ccc12 | condition met |
| O=C(C1CCN(c2nnc(-n3cccc3)s2)CC1)N1CCN(Cc2ccc3c(c2)OCO3)CC1 | condition met |
| Cc1cn([C@H]2CCCN([C@H](CC3CCOCC3)c3ccc(C(=O)O)c(Oc4cccc(Cl)c4)c3)C2)c(=O)[nH]c1=O | condition not met |
| N#C/C(=C(/N)Sc1ccc(N)cc1)c1ccccc1C(F)(F)F | condition met |
| CC(C)c1ccc2oc3nc(N)c(C(=O)O)cc3c(=O)c2c1 | condition not met |
| CCCS(=O)(=O)N1CCCC(C(=O)N2CCC(Cc3ccccc3)CC2)C1 (stereo unspecified) | condition met |
| CC(C)(C)c1ccc(-c2n[nH]c(NC(=O)c3ccccc3Cl)c2Br)cc1 | condition met |
| O=C([C@H]1CCCCN1)N1CCN(c2nc(NCc3ccc(Cl)cc3Cl)c3cccnc3n2)CC1 | condition met |
| COC(=O)[C@@H]1[C@H]2C[C@H]3c4[nH]c5ccccc5c4CCN3C[C@@H]2CC[C@@H]1O | condition not met |
| CSc1ccc(N2C(N)=NC(N)=NC2(C)C)cc1 | condition not met |
| CCCCN(CCNCCc1ccc(O)c2[nH]c(=O)sc12)C(=O)CCOCCc1ccccc1 | condition met |
| Cc1ccc(C(=O)N2CCC(C(=O)c3ccc(Cl)cc3)CC2)cc1 | condition met |
| CC(=O)N1CCOc2cc(COc3ccccc3)cnc21 | condition met |
| CN1CCc2cc(Cl)c(O)cc2[C@@H](c2ccccc2)C1 | condition met |
| O=c1[nH]c2c(O)ccc([C@@H](O)CNCCCSCCOCCc3cccc4ccccc34)c2s1 | condition met |
| C(=C\c1nn[nH]n1)/c1ccccc1 | condition not met |
| O=C(O)c1[nH]c2cc(Cl)cc(Cl)c2c1/C=C1\CCN(c2ccccc2)C1=O | condition not met |
| COc1ccccc1CN(C(C)=O)c1cnccc1Oc1ccccc1 | condition met |
| COc1ccc(Nc2nccc(-c3cnc(C)n3C(C)C)n2)cc1 | condition met |

Origin of the recorded values: ChEMBL document CHEMBL3301361
